# System: SK-MEL-28
# PROTOCOL DESCRIPTION: NCI tumour cell line growth inhibition, 48 h
The source made the active and inactive calls. Rule as the data show it: active = GI50 up to about 1.1 µM and inactive = higher.
Recorded GI50, one value per entry.

COMPOUND	RECORDED ENDPOINT	REPORTED VALUE
CCN(CC)CCn1c2c3ccccc3ccc2c2oc(=O)c3ccccc3c21	GI50	> 100 µM (inactive)
CC(=O)OCC1OC(n2c(-c3ccccc3)c(C(C)=O)c(-c3cccc4ccccc34)c(C#N)c2=S)C(OC(C)=O)C(OC(C)=O)C1OC(C)=O (configuration not stated)	GI50	> 100 µM (inactive)
COC(=O)C1CC(C=[N+](C)C)=C(SC)N1C(=O)OCc1ccccc1 (configuration not stated)	GI50	> 100 µM (inactive)
COc1cc(S(=O)(=O)Nc2ccc(-c3csc(N4C(=O)C(C)SC4c4cccs4)n3)cc2)ccc1Cl (configuration not stated)	GI50	23.8 µM (inactive)
C(=C\c1ccc(-c2cn3cc(/C=C/C=N/NC4=NCCN4)ccc3n2)cc1)/C=N/NC1=NCCN1	GI50	1.84 µM (inactive)

Notebook entry, SK-MEL-28 assay: GI50 of CC(=O)OC(C)(C)CCC(=O)[C@](C)(O)[C@H]1[C@H](O)C[C@@]2(C)[C@@H]3CCc4c(cc(OC5OC(CO)C(O)C(O)C5O)c(O)c4C)C3(C)C(=O)C[C@]12C (some centres not stated) = ?
> 100 µM (inactive)

Notebook entry, SK-MEL-28 assay: GI50 of CCC(C)(C)NS(=O)(=O)c1ccccc1 = ?
> 100 µM (inactive)
